- System: Vaccinia virus
- assay_protocol: Inhibition of Vaccinia virus DNA synthesis in by rapid plate assay
- Assay type: functional, organism-based
- condition_notes: Orthopoxvirus vaccinia
measured_property: pIC50
// scale note: pIC50 = -log10(conc_M); give the bare number

Here are 3 compounds together with their reported answers.
| smi | pIC50 |
| --- | --- |
| CCOC(=O)CCc1c(CC(=O)OCC)c[nH]c1/C=N/O.Cl | 5.42 |
| CN(C)CCCNc1c2c(nc3ccccc13)CCC2 | 4.49 |
| CN(C)/C=C/C=C1C(=O)CCCC1=O | 4.07 |

// below: pIC50 requested for another compound
Request: Dear colleague, I am looking for the recorded pIC50 of the following compound: CCN1/C(=C/c2ccc3ccccc3[n+]2CC)Sc2cc(NC(C)=O)ccc21
Result: 4.82

###

- assay_protocol: Cytotoxicity against african green monkey BSC1 cells after 20 hrs WST-1 based assay
- Format: cell-based, BSC-1
- condition_notes: chlorocebus aethiops, read-out: TC50
Exam item: assign MET to entries whose CC50 at 20 h is below 80 µM and NOT MET to entries at or above 80 µM. Note that a value of exactly 80 µM receives NOT MET.

# count of solved cases: 2
| compound | assigned_class |
| --- | --- |
| O=C(O)c1cc(-c2cccs2)nc2ccc(Br)cc12 | NOT MET |
| CCC/N=c1\cc(-c2ccccc2)oc2ccc(C)cc12 | NOT MET |

Request: is_below(CC50 at 20 h, 80 µM) for O=C(O)c1cc(Cc2ccc(O)c(C(=O)O)c2)ccc1O ?
Result: NOT MET

Request: Please do the same for Cc1c(/N=C/c2cc(Br)cc(Br)c2O)cccc1C(=O)O as well.
Result: NOT MET

Request: Cool, now c1ccc(CNc2ccc3c(ccc4c5ccccc5[nH]c34)n2)cc1
Result: MET

Request: # iterate: COc1ccc2c(C)nc(NC(=N)/N=C(\C)c3ccccc3C(=O)O)nc2c1
Result: NOT MET

###

- assay_protocol: Selectivity index, TC50 for african green monkey BSC1 cells after 72 hrs to EC50 for Vaccinia virus WR in BSC1 cells after 72 hrs by cell protection assay
- Type: toxicity, cell-based, BSC-1
- condition_notes: read-out: Selectivity Index
measured_property: selectivity ratio at 72 h
Kindly provide the number alone.

Request: Given the entry COC(=O)c1cccc2c1-c1ccccc1/C2=N\O , report its measured selectivity ratio at 72 h.
Result: 3.2

###

- assay_protocol: Cytotoxicity against african green monkey BSC1 cells up to 200 uM after 20 to 120 hrs WST-1 based assay
- Assay type: cell-based
- condition_notes: chlorocebus aethiops, bsc-1
measured_property: Activity

# annotated cases, reported Activity shown
| compound | Activity |
| --- | --- |
| CC1CCCC(C)N1CCNc1nc2ccccc2c2nc(-c3ccccc3)nn12 (stereo not drawn) | Toxic |
| Cc1cc(NCCN2CCCCC2)c2ccc3ccccc3c2n1 | Toxic |
| O=C(O)c1ccc(CS(=O)(=O)c2ccccc2)o1 | Toxic |
| COc1ccc2c(c1)C=C/C(=C\c1sc3ccccc3[n+]1C)N2C.[Cl-] | Toxic |
| O=C(NCCCN1CCCC1)c1cc2c(Cl)nc3ccccc3c2s1 | Toxic |
| CCOC(=O)CCc1c(CC(=O)OCC)c[nH]c1/C=N/O.Cl | Toxic |
| CCN1CCN(c2ccc(Nc3ccnc4cc5ccccc5cc34)cc2)CC1 | Toxic |

Note: attention shifts to another entry.
Request: What does the record list as Activity for CC(C)Nc1ccc(Nc2ccnc3cc4ccccc4cc23)cc1 ?
Result: Toxic
